List of pIC50 values.
- System Under Test: Endothelial lipase (EL) (Homo sapiens)
- Construct: HT-1080 cells that were transformed using RAGE technology (Athersys) to overexpress endogenous EL; endogenous in cells; conditioned medium used
- Sequence (Q9Y5X9 21-500): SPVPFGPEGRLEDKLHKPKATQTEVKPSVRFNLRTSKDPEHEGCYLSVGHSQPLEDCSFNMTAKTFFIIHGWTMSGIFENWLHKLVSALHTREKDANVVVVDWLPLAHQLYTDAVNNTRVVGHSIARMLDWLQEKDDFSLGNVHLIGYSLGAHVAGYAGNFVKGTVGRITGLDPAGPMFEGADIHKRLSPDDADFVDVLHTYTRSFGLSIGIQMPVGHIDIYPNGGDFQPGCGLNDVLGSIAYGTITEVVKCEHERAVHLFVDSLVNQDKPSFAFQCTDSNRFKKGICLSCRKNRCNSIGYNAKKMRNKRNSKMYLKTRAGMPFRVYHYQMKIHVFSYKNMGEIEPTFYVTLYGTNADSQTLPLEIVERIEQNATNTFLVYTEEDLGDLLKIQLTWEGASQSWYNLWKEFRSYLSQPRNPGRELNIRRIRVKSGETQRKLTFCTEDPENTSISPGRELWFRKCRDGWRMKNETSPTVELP
- Assay Name: Endothelial lipase (EL) enzymatic assay, fluorescent substrate A10070 in DMPG vesicles
- Format: biochemical
- Experimental Conditions: EL from conditioned media of HT-1080 cells; compound preincubated 30 min at 37° C; read-out: EL IC50
pIC50: −log10 of the molar value.
Attribute Measured: pIC50

* NS(=O)(=O)NCc1nnc(C(c2nc3ccc(-c4ccccc4)cc3s2)S(=O)(=O)Cc2cccc(C(F)(F)F)c2)o1 (stereo not drawn) | > 8.00
* CCS(=O)(=O)C(c1nnc(CNS(N)(=O)=O)o1)c1nc2ccc(-c3ccccc3)cc2s1 (stereo not drawn) | > 8.00
* CS(=O)(=O)C(c1nnc(C[C@@H]2NS(=O)(=O)NC2=O)o1)c1nc2ccc(-c3ccc(C(=O)N4CCOCC4)cc3)cc2s1 (stereo partly drawn) | > 8.00
